- ASSAY SUMMARY: Individual serum elimination rate and half-life (linear regression per employee)
- PARTICULARS: individual estimate, subject 12, 5 samples
We begin with a simple list: items and their reported Elimination rate.

{"MOLECULE": "O=C(O)C(F)(F)C(F)(F)C(F)(F)C(F)(F)C(F)(F)C(F)(F)F", "UNIT NAME": "yearly", "Elimination rate": 6.7}
{"MOLECULE": "O=C(O)C(F)(F)C(F)(F)C(F)(F)C(F)(F)C(F)(F)F", "UNIT NAME": "yearly", "Elimination rate": "−0.3"}
{"MOLECULE": "O=S(=O)(O)C(F)(F)C(F)(F)C(F)(F)C(F)(F)C(F)(F)C(F)(F)C(F)(F)C(F)(F)F", "UNIT NAME": "yearly", "Elimination rate": 0.8}
{"MOLECULE": "O=C(O)C(F)(F)C(F)(F)C(F)(F)C(F)(F)C(F)(F)C(F)(F)C(F)(F)F", "UNIT NAME": "yearly", "Elimination rate": 0.7}
{"MOLECULE": "O=S(=O)(O)C(F)(C(F)(F)F)C(F)(F)C(F)(F)C(F)(F)C(F)(F)C(F)(F)C(F)(F)F (stereo not drawn) [1m-PFOS, perfluoro-1-methylheptanesulfonate]", "UNIT NAME": "yearly", "Elimination rate": 0.03}
{"MOLECULE": "O=S(=O)(O)C(F)(F)C(F)(F)C(F)(F)C(F)(F)C(F)(F)C(F)(F)C(F)(F)F", "UNIT NAME": "yearly", "Elimination rate": 0.6}
{"MOLECULE": "O=S(=O)(O)C(F)(F)C(F)(F)C(F)(F)C(F)(F)C(F)(F)F", "UNIT NAME": "yearly", "Elimination rate": 1.1}
{"MOLECULE": "O=S(=O)(O)C(F)(F)C(F)(F)C(F)(F)C(F)(F)F", "UNIT NAME": "yearly", "Elimination rate": 5.4}
{"MOLECULE": "O=S(=O)(O)C(F)(F)C(F)(F)C(F)(F)C(F)(F)C(F)(F)C(F)(F)F", "UNIT NAME": "yearly", "Elimination rate": 0.4}

Origin of values: paper PMC7351026
